- tgt: T1, His-tagged HM1.24 antigen, residues N49-A163 of the extracellular domain (UniProt Q10589 49-163)
- T1 chain: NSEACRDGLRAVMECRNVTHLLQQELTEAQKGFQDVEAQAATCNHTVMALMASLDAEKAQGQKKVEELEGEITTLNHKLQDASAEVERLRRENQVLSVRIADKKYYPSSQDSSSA
- assay_name: Biacore
Quick rule for you: Kd under 0.05 nM gets Criterion met, anything else gets Criterion not met.

Task: Please state whether Kd is below 0.05 nM for HM1.24_H1L2 (antibody, V domains shown) VH: QVQLVQSGAEVKKPGASVKVSCKASGYTFTPYWMQWVRQAPGQGLEWMGSIFPGDGDTRYSQSFQGQVTISADKSISTAYMELSRLRSDDTAVYYCARGLRRGGYYFDYWGQGTLVTVSS VL: DIVMTQSPSSLSASVGDRVTITCQASQDVNTAVAWYQQKPDQSPKLLIYSASNRYTGVPDRITGSGSGTDFTLTISSLQAEDVAVYYCQQHYSTPFTFGSGTKLEIKR
Result: Criterion met

Task: Please state whether Kd is below 0.05 nM for HM1.24_H1L4 (antibody, V domains shown) VH: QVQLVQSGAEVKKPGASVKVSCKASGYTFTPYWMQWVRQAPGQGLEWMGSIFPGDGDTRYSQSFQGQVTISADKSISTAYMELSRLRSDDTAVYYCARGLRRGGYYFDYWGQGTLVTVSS VL: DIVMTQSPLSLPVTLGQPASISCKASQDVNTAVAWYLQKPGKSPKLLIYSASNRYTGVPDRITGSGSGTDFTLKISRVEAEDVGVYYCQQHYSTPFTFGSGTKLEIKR
Result: Criterion met

Task: Please state whether Kd is below 0.05 nM for H0L0_IgG1_S239D/I332E (antibody, V domains shown) VH: QVQLQQSGAELARPGASVKLSCKASGYTFTPYWMQWVKQRPGQGLEWIGSIFPGDGDTRYSQKFKGKATLTADKSSSTAYMQLSILAFEDSAVYYCARGLRRGGYYFDYWGQGTTLTVSS VL: DIVMTQSHKFMSTSVGDRVSITCKASQDVNTAVAWYQQKPGQSPKLLIYSASNRYTGVPDRITGSGSGTDFTFTISSVQAEDLALYYCQQHYSTPFTFGSGTKLEIK
Result: Criterion not met

With those in mind, consider the next binder.
Task: Please state whether Kd is below 0.05 nM for HM1.24_H1.2 heavy chain variant with HM1.24_L4 light chain (antibody, V domains shown) VH: QVQLVQSGAEVKKPGASVKVSCKASGYTFTPYWMQWVRQAPGQGLEWMGSIFPGSGDTRYSQSFQGQVTISADKSISTAYMELSRLRSDDTAVYYCARGLRRGGYYFDYWGQGTLVTVSS VL: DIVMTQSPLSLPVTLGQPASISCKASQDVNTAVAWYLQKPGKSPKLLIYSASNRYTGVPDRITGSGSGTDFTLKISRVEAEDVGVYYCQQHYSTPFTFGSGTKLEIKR
Result: Criterion not met
